# Target Or Test System: human cathepsin L (CatL) (Homo sapiens (Human))
# Method: CatL functional enzyme assay
# Format: biochemical
# Condition Context: read-out: hCatL, inhibition [%] at 31.6 μM
Reported values of inhibition at 31.6 µM for individual entries
The answer is to be given in %; state only the numeric part.

These recorded examples may help you get a feel for the data.
CCc1cnnc(-c2ccc(C(=O)N[C@H](C(=O)N3C[C@H](Cl)[C@H]4OCC(=O)[C@H]43)C3CCCCC3)s2)c1 :: 26
COc1cc(-c2ccc(C(=O)N[C@H](C(=O)N3C[C@H](Cl)[C@H]4OCC(=O)[C@H]43)C3CCCCC3)s2)cnn1 :: 32
O=C(N[C@H](C(=O)N1C[C@H](Cl)[C@H]2OCC(=O)[C@H]21)C1CCCCC1)c1ccc(-c2ccc(C3CC3)nc2)s1 :: 1
O=C(N[C@H](C(=O)N1C[C@H](Cl)[C@H]2OCC(=O)[C@H]21)C1CCCCC1)c1ccc(-c2ccncn2)o1 :: 18
O=C(N[C@H](C(=O)N1C[C@H](Cl)[C@H]2OCC(=O)[C@H]21)C1CCCCC1)c1ccc(-c2cc(C3CC3)cnn2)s1 :: 19

## Input Which inhibition at 31.6 µM is listed for O=C(N[C@H](C(=O)N1C[C@H](Cl)[C@H]2OCC(=O)[C@H]21)C1CCCCC1)c1ccc(-c2cccnn2)o1 ?
## Output 16

## Input Here is the next compound: O=C(N[C@H](C(=O)N1C[C@H](Cl)[C@H]2OCC(=O)[C@H]21)C1CCCCC1)c1cnc(-c2cccnc2)s1
## Output 16

## Input Would you mind doing COc1cc(-c2ccc(C(=O)N[C@H](C(=O)N3C[C@H](Cl)[C@H]4OCC(=O)[C@H]43)C3CCCCC3)s2)ccn1 as well?
## Output 20

## Input And O=C(N[C@H](C(=O)N1C[C@H](Cl)[C@H]2OCC(=O)[C@H]21)C1CCCCC1)c1ccc(-c2ccccn2)s1 ?
## Output 3

## Input Also check O=C(N[C@H](C(=O)N1C[C@H](Cl)[C@H]2OCC(=O)[C@H]21)C1CCCCC1)c1ncc(-c2ccc(Cl)nc2)s1
## Output 7

---

# Target Or Test System: human cathepsin L (CatL) (Homo sapiens (Human), UniProt P07711)
# Sequence (P07711 114-333): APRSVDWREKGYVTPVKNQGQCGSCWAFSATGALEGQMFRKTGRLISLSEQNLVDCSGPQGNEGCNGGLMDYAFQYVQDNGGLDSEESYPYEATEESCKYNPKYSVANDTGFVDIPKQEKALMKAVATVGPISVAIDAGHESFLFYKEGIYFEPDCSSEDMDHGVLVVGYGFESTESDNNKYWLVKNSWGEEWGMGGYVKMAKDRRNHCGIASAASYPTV
# Method: CatL functional enzyme assay
# Format: biochemical
# Condition Context: read-out: hCatL, inhibition [%] at 31.6 μM
# Description: Reference and test compounds were assayed for inhibitory potency (IC50) against human cathepsins using the following assay setups: Recombinant human cathepsins (CatS, CatK, CatL) were purchased from a Enzo Life Sciences. […] Flourogenic substrate turnover was detected using a microplate reader (Synergy™ H4, BioTek). Ki values were calculated using the Cheng Prusoff equation (Cheng & Prosoff 1973).
Please note: true (1) applies when inhibition at 31.6 µM is 30% or greater, and false (0) applies otherwise.

Known results for compounds:
O=C(N[C@H](C(=O)N1C[C@H](Cl)[C@H]2OCC(=O)[C@H]21)C1CCCCC1)c1sc(-c2cncnc2)cc1F :: true (1)
CCc1cc(-c2cnc(C(=O)N[C@H](C(=O)N3C[C@H](Cl)[C@H]4OCC(=O)[C@H]43)C3CCCCC3)s2)ccn1 :: false (0)
O=C(N[C@H](C(=O)N1C[C@H](Cl)[C@H]2OCC(=O)[C@H]21)C1CCCCC1)c1ncc(-c2cncc(F)c2)s1 :: false (0)

## Input Does O=C(N[C@H](C(=O)N1C[C@H](Cl)[C@H]2OCC(=O)[C@H]21)C1CCCCC1)c1cnc(-c2ccnnc2)o1 have a reported inhibition at 31.6 µM of at least 30%?
## Output false (0)

## Input Consider next the compound O=C(N[C@H](C(=O)N1C[C@H](Cl)[C@H]2OCC(=O)[C@H]21)C1CCCCC1)c1ccc(-c2ccnnc2)s1 in the same way.
## Output true (1)

## Input Consider next the compound O=C(N[C@H](C(=O)N1C[C@H](Cl)[C@H]2OCC(=O)[C@H]21)C1CCCCC1)c1ccc(-c2cncc(F)c2)s1 in the same way.
## Output false (0)
